- experimental details: yeast display, Sf9 membrane polyspecificity reagent, FACS + sequencing; frameworks hold sequencing errors
property: polyreactivity (PSR sort gate)

Recorded polyreactivity (PSR sort gate), per entry:
{"seq text": "QVQLVESGGGLVQAGVSLRLSCAASGRIFYHNAMGWYRQAPGKEREFVAAISSRGGTTYYADSVKGRFTISRDNAKKTVYLQMNILKPEDTAVYYCAKQYYSASPAKGDYWGQGTQVTVSS", "polyreactivity (PSR sort gate)": "high polyreactivity"}
{"seq text": "QVQLVESGGGLVQAGGSLRLSCAASGSTFYYNGMGWYRQAPGKERELVAAITWTGDSTYYADSVKGRFTISRDNAKNTVYLQMNCLKPEDTAVYYCAAYYRKTGYDYWGQGTQVTVSS", "polyreactivity (PSR sort gate)": "high polyreactivity"}
{"seq text": "QVQRVESGGGLGQAGGSLRLSCDASGRTFSGNTMGWYRQAPVKERELVAVINSGTRTYYADSVKGRFTISRDNAKNTVYLQMYSLKPEDTAGYYCATRCKSPSSKYGYWGQGTQVNVSS", "polyreactivity (PSR sort gate)": "high polyreactivity"}
{"seq text": "QVQLVESGGGLVQAGASLRLSCAASGGIFYVYDMGWYRQAPGKERELVAVITFTGGSTYYADSVKGRYTISRDNAKNSVYFQKNRLKPEDTAVYYCAADAYQSAYSGEYDVYTEYDYWGQGTQVTVSS", "polyreactivity (PSR sort gate)": "low polyreactivity"}

Query block: Fill in: polyreactivity (PSR sort gate) of `QDQHVESGGGLVQAGGSLRLSCAASGLTFTLYAMGWYRKAPGKERELVAAITRSGGSTSYADSVKGRFTISRDYAKNTVYLQMNSLKPEDTAVYYCNADSPGYTAVRLVEFDYWGQGTQVTVSS` is ___
Result block: low polyreactivity
